Provide the recorded IC50 for the entries that follow.
test: cells; settings: Homo sapiens, HT-29, 72 h
Description: Cytotoxicity against human HT-29 cells assessed as reduction in cell viability after 72 hrs by MTT assay
Numbers only here, please. The scale is µM.

Let me know recorded IC50 for CO[C@@]12C=C3C(=O)c4c(O)cc5c(c4O[C@@]34[C@@H]1C(C)(C)O[C@@]4(CC=C(C)C)C2=O)C=CC(C)(C)O5 , thanks. 4.8

Let me know recorded IC50 for CO[C@]12C=C3C(=O)c4c(O)c(CC=C(C)C)c(O)c(CC=C(C)C)c4O[C@]34C(C1)C(C)(C)O[C@]4(CC=C(C)C)C2=O , thanks. 2.3

Let me know recorded IC50 for CC(C)=CCC/C(C)=C/C[C@@]1(CC=C(C)C)C(=O)C(O)=C(O)c2oc3c4c(cc(O)c3c(=O)c21)OC(C)(C)C=C4 , thanks. 6.4
